Data provenance is the supplement of paper PMC7017272.

Tested on: UT-SCC-42B
Assay Info: relative IC50 (midpoint of the fitted curve; maximal inhibition may be below 50%); higher = less potent
Experimental Context: culture condition: embedded in Matrigel; treatment time: 3 days
Categories are defined by ranges of relative IC50, namely lower range: < 0.01 µM; middle range: ≥ 0.01 µM and < 0.08 µM; upper range: ≥ 0.08 µM

1) C#Cc1cccc(Nc2ncnc3cc(OCCOC)c(OCCOC)cc23)c1 [Erlotinib]    upper range
2) Cn1cnc2c(F)c(Nc3ccc(Br)cc3Cl)c(C(=O)NOCCO)cc21 [Selumetinib]    upper range
3) COc1cc(F)c(F)c(Nc2ccc(I)cc2F)c1NS(=O)(=O)C1(C[C@H](O)CO)CC1 [Refametinib]    middle range
4) Cn1c(=O)c(F)c(Nc2ccc(I)cc2F)c2c(=O)n(C[C@@H](O)CO)cnc21 [TAK-733]    lower range
5) O=C(NC[C@H](O)CO)c1ccncc1Nc1ccc(I)cc1F [Pimasertib]    middle range
6) Cc1c(CN2CCN(C(=O)[C@H](C)O)CC2)sc2c(N3CCOCC3)nc(-c3cnc(N)nc3)nc12 [Apitolisib]    upper range
7) COc1ncc(-c2ccc3nccc(-c4ccnnc4)c3c2)cc1NS(=O)(=O)c1ccc(F)cc1F [Omipalisib]    lower range
8) C=CC(=O)Nc1cc2c(Nc3ccc(F)c(Cl)c3)ncnc2cc1OCCCN1CCOCC1 [Canertinib]    middle range
9) CC(=O)Nc1cccc(-n2c(=O)n(C3CC3)c(=O)c3c(Nc4ccc(I)cc4F)n(C)c(=O)c(C)c32)c1 [Trametinib]    lower range
10) CN(C)C/C=C/C(=O)Nc1cc2c(Nc3ccc(F)c(Cl)c3)ncnc2cc1O[C@H]1CCOC1 [Afatinib]    middle range
11) Cn1c(=O)n(-c2ccc(C(C)(C)C#N)cc2)c2c3cc(-c4cnc5ccccc5c4)ccc3ncc21 [Dactolisib]    upper range

###

Tested on: UT-SCC-28
Assay Info: maximal % inhibition of viability relative to DMSO; higher = stronger effect
Experimental Context: culture condition: embedded in Myogel + collagen I; treatment time: 3 days
Consider the cut-off 40%. If the recorded maximal % inhibition of viability is strictly smaller, the label is condition met; if not, the label is condition not met.

1) CO[C@H]1C[C@@H]2CC[C@@H](C)[C@@](O)(O2)C(=O)C(=O)N2CCCC[C@H]2C(=O)O[C@H]([C@H](C)C[C@@H]2CC[C@@H](OC(=O)C(C)(CO)CO)[C@H](OC)C2)CC(=O)[C@H](C)/C=C(\C)[C@@H](O)[C@@H](OC)C(=O)[C@H](C)C[C@H](C)/C=C/C=C/C=C/1C [Temsirolimus]    condition met
2) CN(C)C/C=C/C(=O)Nc1cc2c(Nc3ccc(F)c(Cl)c3)ncnc2cc1O[C@H]1CCOC1 [Afatinib]    condition met
3) CO[C@H]1C[C@@H]2CC[C@@H](C)[C@@](O)(O2)C(=O)C(=O)N2CCCC[C@H]2C(=O)O[C@H]([C@H](C)C[C@@H]2CC[C@@H](O)[C@H](OC)C2)CC(=O)[C@H](C)/C=C(\C)[C@@H](O)[C@@H](OC)C(=O)[C@H](C)C[C@H](C)/C=C/C=C/C=C/1C [Sirolimus]    condition not met
4) Cn1c(=O)n(-c2ccc(C(C)(C)C#N)cc2)c2c3cc(-c4cnc5ccccc5c4)ccc3ncc21 [Dactolisib]    condition met
5) CC(=O)Nc1cccc(-n2c(=O)n(C3CC3)c(=O)c3c(Nc4ccc(I)cc4F)n(C)c(=O)c(C)c32)c1 [Trametinib]    condition met
